For each record, write down the corresponding Reporter (RLU).
# test system: 4-1BB on transfected NF-κB Jurkat cells (UniProt Q07011 24-255, limits assumed)
# Sequence (Q07011 24-255 limits assumed): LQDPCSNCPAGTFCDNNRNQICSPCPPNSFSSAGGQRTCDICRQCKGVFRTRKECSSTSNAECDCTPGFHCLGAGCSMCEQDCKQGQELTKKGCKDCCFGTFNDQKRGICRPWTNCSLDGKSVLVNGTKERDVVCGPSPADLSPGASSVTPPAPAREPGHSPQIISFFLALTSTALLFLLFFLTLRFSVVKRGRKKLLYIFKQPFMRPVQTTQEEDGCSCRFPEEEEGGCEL
# assay info: cell-based or functional assay
Number in RLU, nothing else.

What does the record list as Reporter (RLU) for 8E2 (ligand, also called 4-1BBL variant 8E2 (phagemid clone, bacterial supernatant)) 4-1BBL variant: ACPWAVSGARASPGSAASPRLREGPELSPDDPAGLLDLRQGMFAQLVAQNVLLIDGPLSWYPDPGLAGVSLTGGLSYKEDTKELVVAKAGVYYVFFQLELRRVVAFEGSGSVSLALHLQPLRSAAGAAALALTVDLPPASSEARNSAFGFQGRLLHLSAGQRLGVHLHTEARARHSWQLTQGATVLGLFRVTPEIPAGLPSPRSE ?
4880

For 1D2 (ligand, also called 4-1BBL variant 1D2 (phagemid clone, bacterial supernatant)) 4-1BBL variant: ACPWAVSGARASPGSAASPRLREGPELSPDDPAGLLDLRQGMFAQLVAQNVLLIDGPLSWYEDPGLAGVSLTGGLSYKEDTKELVVAKAGVYYVFFQLELRRVVAGTGSGSVSLALHLQPLRSAAGAAALALTVDLPPASSEARNSAFGFQGRLLHLSAGQRLGVHLHTEARARHALQLTQGATVLGLFRVTPEIPAGLPSPRSE , what is its reported Reporter (RLU)?
4390

Item under review: 4C2 (ligand, also called 4-1BBL variant 4C2 (phagemid clone, bacterial supernatant)) 4-1BBL variant: ACPWAVSGARASPGSAASPRLREGPELSPDDPAGLLDLRQGMFAQLVAQNVLLIDGPLSWYPDPGLAGVSLTGGLSYKEDTKELVVAKAGVYYVFFQLELRRVVAGRGSGSVSLALHLQPLRSAAGAAALALTVDLPPASSEARNSAFGFQGRLLHLSAGQRLGVHLHTEARARHAWQFTQGATVLGLFRVTPEIPAGLPSPRSE . Reported Reporter (RLU)?
3420

Origin of measurements: patent US20260193315A1
